procedure-summary: TNFa signaling inhibitors in B cell line, dose response, counter-screen (AID 1259334);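 note: cells stimulated with TNFa after compound preincubation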
condition-notes: B cell line, TNFa signaling counterscreen reporter; at 1.1 µM; active compounds read low
Each record here notes measured max activity.
Lab book: enter the figure in %, no units written.

compound	max activity, %
COc1ccc(CN2CC3(CN(C(=O)Cc4ccccc4)C3)c3c([nH]c4cc(OC)ccc34)[C@H]2CO)cc1	10.3

Requested read-out: max activity. Entry: Cc1ccc2nc(-c3cc(-c4ccccc4)no3)cn2c1 49.4

Requested read-out: max activity. Entry: C[C@@H]1CCCCO[C@@H](CN(C)S(=O)(=O)c2ccc(Cl)cc2)[C@H](C)CN([C@H](C)CO)C(=O)c2cc(NC(=O)Nc3ccc(C(F)(F)F)cc3)ccc2O1 17

Requested read-out: max activity. Entry: COc1ccc(NC(=O)O/N=C/c2c(C)nn(C(C)(C)C)c2C)cc1 39.8

Requested read-out: max activity. Entry: N#C[C@@H]1[C@@H](c2ccccc2-c2ccccc2)[C@@H](CO)N1C(=O)NC1CCCC1 20.9

Requested read-out: max activity. Entry: CC(C)(C)n1cc(C(=O)c2ccc3ccccc3c2O)cn1 -24.4

Requested read-out: max activity. Entry: COc1cccc(S(=O)(=O)N(C)C[C@@H]2OCc3ccccc3-c3c(n(C)c4ccccc34)C(=O)N([C@H](C)CO)C[C@@H]2C)c1 16.8

Requested read-out: max activity. Entry: CCCCC1C(=O)NC(=S)N(C)C1=O (centres undefined) -7.17

Requested read-out: max activity. Entry: CC1=CC(=O)c2ccccc2C1=O 21.6
